# Test Method Notes: Inhibition of HIV protease
# Parameters: species or system Human immunodeficiency virus
Observation Type: Ki (nM)
Unit nM implied. Number only.

Could you tell me which Ki is on file for COC(=O)N[C@H](C(=O)N[C@@H](Cc1ccc(-c2ccccn2)cc1)C[C@H](O)[C@H](Cc1ccccc1)NC(=O)[C@@H](N1CCN(Cc2ccccc2)C1=O)C(C)(C)C)C(C)(C)C ?
0.015

###

So I've got a bunch of compounds here, and I need their Cmax values.
# Test Method Notes: Cmax in dog at 5 mg/kg, po coadministered with 2.5 mg/kg ritonavir
# Assay type: ADME, organism-based, Canis lupus familiaris
# Set-up: dose 5 mg/kg, route oral
# Assay Context: in vivo
Unit ng/mL implied. Number only.

Could you tell me which Cmax is on file for COC(=O)N[C@H](C(=O)N[C@@H](Cc1ccc(-c2ccccn2)cc1)C[C@H](O)[C@H](Cc1ccccc1)NC(=O)[C@@H](N1CCN(Cc2ccccc2)C1=O)C(C)(C)C)C(C)(C)C ?
3910

Next: COC(=O)N[C@H](C(=O)N[C@H](Cc1ccc(-c2ccccn2)cc1)C[C@H](O)[C@H](Cc1ccccc1)NC(=O)[C@@H](N1CCN(Cc2cccc(C(C)(C)O)n2)C1=O)C(C)(C)C)C(C)(C)C
2220
